target: mTORC1 (Homo sapiens, UniProt P42345+Q8N122+Q9BVC4); assay: Inhibition of mTORC1 (unknown origin) assessed as measuring phosphorylated 4EBP1 level at 1 uM relative to control; type: protein-complex assay
Sequence (Q8N122 whole entry, looked up, other chains not shown): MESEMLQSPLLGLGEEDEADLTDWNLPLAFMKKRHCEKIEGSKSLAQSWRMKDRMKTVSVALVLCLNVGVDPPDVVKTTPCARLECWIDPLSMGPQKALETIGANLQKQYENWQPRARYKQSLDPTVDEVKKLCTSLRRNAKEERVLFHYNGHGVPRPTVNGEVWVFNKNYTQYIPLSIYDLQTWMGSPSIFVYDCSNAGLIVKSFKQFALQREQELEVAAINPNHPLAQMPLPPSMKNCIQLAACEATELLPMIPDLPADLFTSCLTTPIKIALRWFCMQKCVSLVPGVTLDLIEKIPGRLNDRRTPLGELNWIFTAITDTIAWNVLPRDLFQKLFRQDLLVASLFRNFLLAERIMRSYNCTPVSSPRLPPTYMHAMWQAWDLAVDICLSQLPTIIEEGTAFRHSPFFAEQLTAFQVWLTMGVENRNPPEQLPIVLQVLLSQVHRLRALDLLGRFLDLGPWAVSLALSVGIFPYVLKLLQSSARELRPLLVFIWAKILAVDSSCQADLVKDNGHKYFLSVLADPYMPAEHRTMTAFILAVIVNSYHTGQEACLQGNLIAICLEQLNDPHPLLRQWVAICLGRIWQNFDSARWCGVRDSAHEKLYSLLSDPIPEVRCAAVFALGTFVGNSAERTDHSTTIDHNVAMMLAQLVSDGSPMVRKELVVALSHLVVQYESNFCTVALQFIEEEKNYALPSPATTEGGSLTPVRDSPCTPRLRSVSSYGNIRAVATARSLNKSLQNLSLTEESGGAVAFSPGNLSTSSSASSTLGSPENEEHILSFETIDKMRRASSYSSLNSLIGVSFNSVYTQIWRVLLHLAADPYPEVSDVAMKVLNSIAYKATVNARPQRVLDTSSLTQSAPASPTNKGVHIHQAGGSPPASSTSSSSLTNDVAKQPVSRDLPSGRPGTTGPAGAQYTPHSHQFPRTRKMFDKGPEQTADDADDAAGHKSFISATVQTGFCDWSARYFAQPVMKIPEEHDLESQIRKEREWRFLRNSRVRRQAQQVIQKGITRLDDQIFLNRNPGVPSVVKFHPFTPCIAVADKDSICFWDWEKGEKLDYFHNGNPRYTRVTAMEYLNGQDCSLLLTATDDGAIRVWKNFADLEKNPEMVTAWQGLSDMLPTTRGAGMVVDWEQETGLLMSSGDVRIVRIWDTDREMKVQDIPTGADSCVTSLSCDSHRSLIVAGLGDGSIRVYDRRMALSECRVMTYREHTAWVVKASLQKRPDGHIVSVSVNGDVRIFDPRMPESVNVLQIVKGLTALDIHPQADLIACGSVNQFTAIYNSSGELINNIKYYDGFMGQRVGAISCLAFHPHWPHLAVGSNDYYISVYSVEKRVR
Sequence (Q9BVC4 whole entry, looked up, other chains not shown): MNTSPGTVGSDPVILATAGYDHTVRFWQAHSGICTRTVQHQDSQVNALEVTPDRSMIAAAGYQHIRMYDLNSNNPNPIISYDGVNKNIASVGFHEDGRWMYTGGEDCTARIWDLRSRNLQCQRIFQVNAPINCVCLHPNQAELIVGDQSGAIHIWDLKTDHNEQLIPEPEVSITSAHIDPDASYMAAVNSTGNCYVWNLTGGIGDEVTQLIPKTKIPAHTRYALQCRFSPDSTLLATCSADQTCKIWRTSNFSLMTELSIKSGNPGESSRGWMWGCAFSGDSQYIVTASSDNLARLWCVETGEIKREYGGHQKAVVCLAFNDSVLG
READOUT_TYPE: inhibition (%)

CNC(=O)c1cccc(-c2ccc3c(N4CCOC[C@@H]4C)nc(N4CCO[C@@H]5CCC[C@@H]54)nc3n2)c1 62
CNC(=O)c1cccc(-c2ccc3c(N4CCOC[C@@H]4C)nc(N4CCOc5ccccc54)nc3n2)c1 61
CNC(=O)c1cccc(-c2ccc3c(N4CCOC[C@@H]4C)nc(N4CCOC[C@@H]4C)nc3n2)c1 83.8
CNC(=O)c1cc(-c2ccc3c(N4CCOC[C@@H]4C)nc(N4CCO[C@@H]5CCC[C@@H]54)nc3n2)ccc1F 60.8
CNC(=O)c1cccc(-c2ccc3c(N4CCOC[C@@H]4C)nc(N4CCO[C@@H]5CCCC[C@@H]54)nc3n2)c1 77.8
C[C@H]1COCCN1c1nc(N2CCO[C@@H]3CCCC[C@@H]32)nc2nc(-c3cccc(C4=NCC(C)(C)N4)c3)ccc12 83.2
